target: T1, 8-Actin-C (beta-actin C-terminal peptide); assay: FP; Cy3B-peptide, pH 7; conditions: protein: synthetic; tags: synthetic peptide; Cy3B at Cys7'; label: 5'-fluorescein (unlabeled with Cy3B-labeled protein)
T1 chain: SIVHRKC(Cy3B)F
No end group written: not given here.
recorded.metric: pKd
Lab note: report pKd as minus log10 of the concentration in molar units, number only.

Entry under test: 12-mer dsDNA (dsDNA) DNA 1: GACGACTAGGAT DNA 2: ATCCTAGTCGTC . Its pKd was 8.30
